details: in ethylene glycol, 313.15 K
resultType: solubility (mole fraction)

   structureassmiles  valuereported
0  O=c1cnc(Br)c[nH]1        0.00111

###

conditions: in DMF, 323.15 K
resultType: solubility (mole fraction)

In [3]: df
Out[3]:
   structureassmiles  valuereported
0  O=c1cnc(Br)c[nH]1         0.0365

###

conditions: in methanol, 323.15 K
resultType: solubility (mole fraction)

In [3]: df
Out[3]:
   structureassmiles  valuereported
0  O=c1cnc(Br)c[nH]1        0.00203

###

settings: in DMF, 308.15 K
resultType: solubility (mole fraction)

In [3]: df
Out[3]:
   structureassmiles                  resulttype  valuereported
0  O=c1cnc(Br)c[nH]1  solubility (mole fraction)         0.0219

###

details: in water, 303.15 K
resultType: solubility (mole fraction)

In [3]: df
Out[3]:
   structureassmiles                  resulttype  valuereported
0  O=c1cnc(Br)c[nH]1  solubility (mole fraction)       4.13e-05

###

details: in n-propanol, 278.15 K
resultType: solubility (mole fraction)

>>> print(df.to_string())
   structureassmiles                  resulttype  valuereported
0  O=c1cnc(Br)c[nH]1  solubility (mole fraction)        0.00382

###

conditions: in DMF, 318.15 K
resultType: solubility (mole fraction)

In [3]: df
Out[3]:
   structureassmiles  valuereported
0  O=c1cnc(Br)c[nH]1         0.0309

###

conditions: in methanol, 288.15 K
resultType: solubility (mole fraction)

In [3]: df
Out[3]:
   structureassmiles  valuereported
0  O=c1cnc(Br)c[nH]1       0.000485

###

details: in acetone, 313.15 K
resultType: solubility (mole fraction)

In [3]: df
Out[3]:
   structureassmiles  valuereported
0  O=c1cnc(Br)c[nH]1          0.023

###

conditions: in water, 278.15 K
resultType: solubility (mole fraction)

>>> print(df.to_string())
   structureassmiles  valuereported
0  O=c1cnc(Br)c[nH]1       8.21e-06

###

details: in isopropanol, 313.15 K
resultType: solubility (mole fraction)

   structureassmiles  valuereported
0  O=c1cnc(Br)c[nH]1         0.0135

###

conditions: in propylene glycol, 283.15 K
resultType: solubility (mole fraction)

   structureassmiles  valuereported
0  O=c1cnc(Br)c[nH]1        0.00025

###

details: in acetone, 278.15 K
resultType: solubility (mole fraction)

   structureassmiles  valuereported
0  O=c1cnc(Br)c[nH]1        0.00534

###

conditions: in acetone, 318.15 K
resultType: solubility (mole fraction)

In [3]: df
Out[3]:
   structureassmiles                  resulttype  valuereported
0  O=c1cnc(Br)c[nH]1  solubility (mole fraction)         0.0275

###

settings: in acetone, 283.15 K
resultType: solubility (mole fraction)

   structureassmiles                  resulttype  valuereported
0  O=c1cnc(Br)c[nH]1  solubility (mole fraction)        0.00685

###

settings: in water, 283.15 K
resultType: solubility (mole fraction)

   structureassmiles  valuereported
0  O=c1cnc(Br)c[nH]1       1.29e-05

# credit: BigSolDB 2.1
